molecular target: Histamine H4 receptor (Homo sapiens, UniProt Q9H3N8); experiment: Inverse agonist activity at human histamine H4 receptor assessed as inhibition of [35S]GTPgammaS binding after 15 mins by scintillation proximity assay relative to control; type: functional; set-up: concentration or dose not given beside the values
readout: inhibition (%)

Guide cases for inhibition, answers given:
• CN[C@H]1CCN(c2ncnc3c2oc2ccc(Cl)cc23)C1 = 122
• CN[C@@H]1CCN(c2nc(N)nc3c2oc2ccc(Cl)cc23)C1 = 138
• CN1C[C@@H]2C[C@H]1CN2c1ncnc2c1oc1ccc(Cl)cc12 = 105

(a) CNC1CN(c2ncnc3c2oc2ccc(Cl)cc23)C1
(b) CN1CCN(c2nc(C(F)(F)F)nc3c2oc2ccc(Cl)cc23)CC1
Parameter metric = inhibition. Return the lower-valued option from a and b . Field: selected label. Fill in the label of the entry you choose.
b

* * *

molecular target: UniProt:Q9H3N8; experiment: Displacement of [3H]histamine human recombinant histamine H4 receptor
readout: IC50 (nM)
# value in nM; strip the unit string

Using known records, supply IC50 for `CN1CCN(c2ncnc3c2oc2ccc(Cl)cc23)CC1`
19

* * *

assay: Oral bioavailability in dog; assay type: ADME, organism-based, Canis lupus familiaris; settings: in vivo
readout: bioavailability (%)
# value in %; strip the unit string

Using known records, supply bioavailability for `CN[C@@H]1CCN(c2nc(N)nc3c2oc2ccc(Cl)cc23)C1`
36

* * *

test: Oral bioavailability in rat at 5 mg/kg; format: ADME, organism-based; conditions: in vivo
readout: bioavailability (%)
# value in %; strip the unit string

Using known records, supply bioavailability for `CN[C@@H]1CCN(c2nc(N)nc3c2oc2ccc(Cl)cc23)C1`
5

* * *

assay: Clearance in dog; type: ADME, organism-based, Canis lupus familiaris; settings: in vivo
readout: clearance (mL/min/kg)
# value in mL/min/kg; strip the unit string

Using known records, supply clearance for `CN[C@@H]1CCN(c2nc(N)nc3c2oc2ccc(Cl)cc23)C1`
52

* * *

assay: Clearance in rat at 5 mg/kg, po; type: ADME, organism-based; set-up: dose 5 mg/kg, route oral; conditions: in vivo
readout: CL/F (mL/min/kg)
# value in mL/min/kg; strip the unit string

Using known records, supply CL/F for `CN[C@@H]1CCN(c2nc(N)nc3c2oc2ccc(Cl)cc23)C1`
117

* * *

assay: Metabolic stability in rat microsomes assessed as drug remaining after 10 mins; type: ADME, Microsome; conditions: read-out: Stability
readout: remaining at 10 min (%)

Guide cases for remaining at 10 min, answers given:
* CN1CCN(c2nc(C3CC3)nc3c2oc2ccc(Cl)cc23)CC1 | 8
* CN1CCN(c2nc(C(F)(F)F)nc3c2oc2ccc(Cl)cc23)CC1 | 7
* CNC1CN(c2ncnc3c2oc2ccc(Cl)cc23)C1 | 89

(A) NC1CCN(c2ncnc3c2oc2ccc(Cl)cc23)C1 (stereo unspecified)
(B) Cc1nc(N2CCN(C)CC2)c2oc3ccc(Cl)cc3c2n1
Parameter metric = remaining at 10 min. Return the lower-valued option from A and B . Field: selected label. Fill in the label of the entry you choose.
B

(I) CN[C@@H]1CCN(c2ncnc3c2oc2ccc(C(F)(F)F)cc23)C1
(II) CN[C@H]1CCN(c2ncnc3c2oc2ccc(Cl)cc23)C1
Kindly identify which of I and II has the larger recorded remaining at 10 min value. Field: selected label. Fill in the label of the entry you choose.
II

(I) CN1CCN(c2nc(C(=O)O)nc3c2oc2ccc(Cl)cc23)CC1
(II) CN(C)C1CCN(c2ncnc3c2oc2ccc(Cl)cc23)C1 (stereo unspecified)
(III) CN1CCN(c2nc(-c3ccccc3)nc3c2oc2ccc(Cl)cc23)CC1
In this exercise, place the 3 molecules in ascending sequence of their recorded remaining at 10 min. # answer = labels listed in requested order
II, III, I

* * *

assay: Oral bioavailability in Cynomolgus monkey; format: ADME, organism-based, Macaca fascicularis; details: in vivo
readout: bioavailability (%)
# value in %; strip the unit string

Using known records, supply bioavailability for `CN[C@@H]1CCN(c2nc(N)nc3c2oc2ccc(Cl)cc23)C1`
99

* * *

biological target: Histamine H4 receptor (Homo sapiens, UniProt Q9H3N8); experiment: Inverse agonist activity at human histamine H4 receptor assessed as inhibition of [35S]GTPgammaS binding after 15 mins by scintillation proximity assay; format: functional
pIC50: −log10 of the molar value.
readout: pIC50

Guide cases for pIC50, answers given:
- CN[C@H]1CCN(c2nc(N)nc3c2oc2ccc(Cl)cc23)C1: 8.40
- CN1CCN(c2nc(C(F)(F)F)nc3c2oc2ccc(Cl)cc23)CC1: 7.41
- CN1C[C@@H]2C[C@H]1CN2c1ncnc2c1oc1ccc(Cl)cc12: 7.15

(I) CN[C@@H]1CCN(c2ncnc3c2oc2ccc(Cl)cc23)C1
(II) CN[C@@H]1CCN(c2nc(N)nc3c2oc2ccc(Cl)cc23)C1
(III) CN[C@H]1CCN(c2ncnc3c2oc2ccc(Cl)cc23)C1
(IV) CNC1CN(c2ncnc3c2oc2ccc(Cl)cc23)C1
In this exercise, place the 4 compounds in ascending sequence of their recorded pIC50. # answer = labels listed in requested order
III, IV, I, II

* * *

target: UniProt Q9H3N8; experiment: Displacement of [3H]histamine dihydrochloride from human histamine H4 receptor after 2.5 hrs by scintillation proximity assay
pIC50: −log10 of the molar value.
readout: pIC50

• CN1C[C@@H]2C[C@H]1CN2c1ncnc2c1oc1ccc(Cl)cc12 = 6.95
• CC1CN(c2ncnc3c2oc2ccc(Cl)cc23)CC(C)N1C (stereo unspecified) = 5.00
• CN[C@@H]1CCN(c2ncnc3c2oc2ccc(C)cc23)C1 = 7.07
• CN1CCN(c2nc(C3CC3)nc3c2oc2ccc(Cl)cc23)CC1 = 6.51
• CN[C@H]1CCN(c2nc(N)nc3c2oc2ccc(Cl)cc23)C1 = 7.89
• CN1CCN(c2ncnc3c2oc2ccc(Cl)cc23)CC1 = 7.72
• Clc1ccc2oc3c(N4CCN5CCCC5C4)ncnc3c2c1 (stereo unspecified) = 6.63
• NC1CCN(c2ncnc3c2oc2ccc(Cl)cc23)C1 (stereo unspecified) = 6.90
• CNC1CN(c2ncnc3c2oc2ccc(Cl)cc23)C1 = 7.06
• CN[C@@H]1CCN(c2nc(C(F)(F)F)nc3c2oc2ccc(Cl)cc23)C1 = 4.85

(I) CC1CN(c2ncnc3c2oc2ccc(Cl)cc23)CCN1C (stereo unspecified)
(II) CN1CCN(c2nc(O)nc3c2oc2ccc(Cl)cc23)CC1
(III) COc1nc(N2CCN(C)CC2)c2oc3ccc(Cl)cc3c2n1
(IV) CN[C@@H]1CCN(c2nc(N)nc3c2oc2ccc(Cl)cc23)C1
In this exercise, place the 4 compounds in ascending sequence of their recorded pIC50. # answer = labels listed in requested order
I, II, III, IV
(I: 5.72, II: 6.00, III: 7.05, IV: 9.00)

(a) CNC1CCN(c2nc(C)nc3c2oc2ccc(Cl)cc23)C1 (stereo unspecified)
(b) CNC1CCN(c2ncnc3c2oc2ccc(C#N)cc23)C1 (stereo unspecified)
(c) CN[C@@H]1CCN(c2ncnc3c2oc2ccc(C(F)(F)F)cc23)C1
(d) CNC1CCN(c2ncnc3c2oc2ccc(Cl)cc23)C1 (stereo unspecified)
Please list the entries, largest pIC50 first. # answer = labels listed in requested order
c, d, a, b

(a) CNC1(C)CCN(c2ncnc3c2oc2ccc(Cl)cc23)C1 (stereo unspecified)
(b) Cc1nc(N2CCN(C)CC2)c2oc3ccc(Cl)cc3c2n1
Kindly identify which of a and b has the larger recorded pIC50 value. Field: selected label. Fill in the label of the entry you choose.
b

(A) CN(C)C1CCN(c2ncnc3c2oc2ccc(Cl)cc23)C1 (stereo unspecified)
(B) CN1CCN(c2nc(C(F)(F)F)nc3c2oc2ccc(Cl)cc23)CC1
(C) CN[C@H]1CCN(c2ncnc3c2oc2ccc(Cl)cc23)C1
(D) CN[C@@H]1CCN(c2ncnc3c2oc2cc(Cl)ccc23)C1
Please list the entries, largest pIC50 first. # answer = labels listed in requested order
B, D, C, A
(B: 7.08, D: 6.77, C: 6.55, A: 4.68)

* * *

experiment: Clearance in Cynomolgus monkey; format: ADME, organism-based, Macaca fascicularis; settings: in vivo
readout: clearance (mL/min/kg)
# value in mL/min/kg; strip the unit string

Using known records, supply clearance for `CN[C@@H]1CCN(c2nc(N)nc3c2oc2ccc(Cl)cc23)C1`
62

* * *

experiment: Half life in rat microsomes; assay type: ADME, Microsome
readout: half-life (min)

• CN[C@H]1CCN(c2ncnc3c2oc2ccc(Cl)cc23)C1 = 73

(A) CN[C@@H]1CCN(c2nc(N)nc3c2oc2ccc(Cl)cc23)C1
(B) CN[C@H]1CCN(c2nc(N)nc3c2oc2ccc(Cl)cc23)C1
Parameter metric = half-life. Return the lower-valued option from A and B . Field: selected label. Fill in the label of the entry you choose.
A

Origin of measurements: ChEMBL document CHEMBL1156992
